tested on: NEK10; conditions: concentration: 1 μM, replicates: in singlicate; n = 1;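 further: KINOMEscan kinase panel screen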
QUANTITY_MEASURED: %Inh
Please give the number followed by its unit.

Use these answered entries as a reference point.
# COMPOUND, TEST_VALUE
data = [
    ("CCCCc1nn2ncccc2c1-c1ccnc(Nc2ccc(N3CCN(C)CC3)cc2)n1", "65%"),
    ("COc1cccc(NC(=O)NC2CCN(c3ccnc(Nc4cc(OC)c(OC)c(OC)c4)n3)C2)c1 (stereo not shown)", "15%"),
    ("Cc1ccc(C(=O)Nc2ccc(Nc3ccnc4cc(-c5nccs5)ccc34)cc2O)cc1.Cl", "0%"),
]

Output measured %Inh for this item: CC(C)c1nc(-c2cccc(NS(=O)(=O)c3c(F)cccc3F)c2F)c(-c2ccnc(Nc3ccc(N4CCOCC4)nc3)n2)s1 0%

###

test system: JNK1; construct: gene MAPK8; conditions: concentration: 1 μM, replicates: in singlicate; n = 1
Overview of reported %Inh across a group of compounds:
Write down the numeric answer in % and omit the unit.

Use these answered entries as a reference point.
# COMPOUND, EXPERIMENTAL_SYSTEM, UNIT_ABBREVIATION, TEST_VALUE
rows = [
    ("Clc1ccc(-c2nn3ncccc3c2-c2ccnc(Nc3ccc4c(c3)OCCO4)n2)cc1 [GW829116]", "JNK1", "%", 99.2),
    ("Nc1ncc(-c2cccnc2)c2scc(-c3ccc4c(c3)CCN4C(=O)Cc3ccccc3)c12 [GSK683281]", "JNK1", "%", 22),
    ("Cc1cccc(NC(=O)Nc2ccc(Oc3ncnc4ccn(C)c34)cc2)c1", "JNK1", "%", 9),
]

# return %Inh for Cc1cccc(Nc2nc(N[C@H]3CCNC3)ncc2C(N)=O)c1.Cl [GSK2197149] , test system: JNK1 67

# return %Inh for O=C(Nc1ccccc1F)NC1CCN(c2ccnc(Nc3ccc(F)cc3)n2)CC1 [GSK1379800] , test system: JNK1 3

# return %Inh for Cn1cc(-c2ccc3c(c2)CCN3C(=O)Cc2cccc(Cl)c2)c2c(N)ncnc21 [GSK2606590] , test system: JNK1 15

# return %Inh for O=C(Nc1cccc(-c2nn3ncccc3c2-c2ccnc(Nc3ccccc3)n2)c1)c1c(F)cccc1F [GSK198271] , test system: JNK1 31

# return %Inh for Fc1ccc(-c2ncn(C3CCNCC3)c2-c2ccnc(Oc3ccc(-c4ccccc4)cc3)n2)cc1 [SB-245391] , test system: JNK1 36

# return %Inh for CN(C)S(=O)(=O)c1cc(-c2ccc3nccc(-c4cccc(S(N)(=O)=O)c4)c3c2)cnc1N [GSK1669921] , test system: JNK1 17

# return %Inh for COc1cccc(-c2ccc3c(NC(=O)C4CC4)n[nH]c3n2)c1 [SB-710903] , test system: JNK1 29

# return %Inh for CNC(=O)c1ccccc1Nc1nc(Nc2ccc(N3CCOCC3)cc2)ncc1Cl.Cl [GSK1576028] , test system: JNK1 100

# return %Inh for CN1CCN(CCCNc2nccc(-c3c(-c4ccc(F)cc4)nn4cc(C(F)(F)F)ccc34)n2)CC1 [GW621581] , test system: JNK1 58

###

tested on: PIK4CB; construct: gene PI4KB; settings: concentration: 1 μM, replicates: in singlicate; n = 1
QUANTITY_MEASURED: %Inh (%)
Write down the numeric answer in % and omit the unit.

Use these answered entries as a reference point.
# MOLECULE, QUANTITY_MEASURED, TEST_VALUE
records = [
    ("COc1cc2c(cc1OCCN1CCNCC1)ncc1c3ccc(C#N)cc3[nH]c21", "%Inh", 33),
    ("Cn1cc(-c2[nH]c3cc(NC(=O)[C@H](N)C4CCCCC4)cc4c3c2C=NNC4=O)cn1", "%Inh", 0),
    ("Cl.NC(=O)c1cccc(Nc2nccc(Nc3ccc(Oc4c(Cl)cccc4Cl)c(Cl)c3)n2)c1", "%Inh", 0),
    ("Cc1cccc(Nc2nc(N[C@H]3CCNC3)ncc2C(N)=O)c1.Cl", "%Inh", 8),
]

Output measured %Inh for this item: COc1ccc(CNC(=O)NC2CCN(c3ccnc(Nc4ccc(F)cc4)n3)CC2)cc1 0

Output measured %Inh for this item: O=C(Nc1cccc(-c2nn3ccccc3c2-c2ccnc(Nc3cccc(C(F)(F)F)c3)n2)c1)c1c(F)cccc1F 8

Output measured %Inh for this item: CN(C)S(=O)(=O)c1cc(-c2ccc3nccc(-c4cccc(S(N)(=O)=O)c4)c3c2)cnc1N 96.5

Output measured %Inh for this item: O=C(NC1CCN(c2ccnc(Nc3ccc(F)cc3)n2)C1)c1cc2ccccc2s1 (centres unmarked) 0

Output measured %Inh for this item: COc1cccc(NC(=O)NC2CCN(c3ccnc(Nc4cc(OC)c(OC)c(OC)c4)n3)C2)c1 (centres unmarked) 78

###

Overview of reported %Inh across a group of molecules:
tested on: EPHA2; conditions: concentration: 1 μM, replicates: in singlicate; n = 1
Write down the numeric answer in % and omit the unit.

Use these answered entries as a reference point.
# MOLECULE, EXPERIMENTAL_SYSTEM, %Inh (%)
records = [
    ("Cl.c1ccc(-c2ccc3c(Nc4ccc5[nH]ccc5c4)ccnc3c2)nc1", "EPHA2", 1),
    ("C[C@@H]1CC[C@@H](C(=O)Nc2ccccc2)CN1c1cc(-c2ccc3c(N)n[nH]c3c2)nc(N)n1", "EPHA2", 17),
    ("COc1cc(Nc2nccc(N3CCC(NC(=O)c4cc5ccccc5s4)C3)n2)cc(OC)c1OC (centres unmarked)", "EPHA2", 9),
    ("O=C(Nc1n[nH]c2nc(-c3ccc(O)cc3)ccc12)C1CC1", "EPHA2", 0),
]

Continue with the molecule presented below.
Output measured %Inh for this item: O=C(Nc1cccc(Oc2ccc3nc(NC(=O)C4CC4)cn3n2)c1)c1ccccc1C(F)(F)F 29

###

test system: RIOK1; conditions: concentration: 1 μM, replicates: in singlicate; n = 1
QUANTITY_MEASURED: %Inh (%)
Write down the numeric answer in % and omit the unit.

Use these answered entries as a reference point.
# MOLECULE, EXPERIMENTAL_SYSTEM, UNIT_ABBREVIATION, %Inh
rows = [
    ("COc1cc(Nc2nccc(N3CCC(NC(=O)Nc4cccc(C(C)=O)c4)C3)n2)cc(OC)c1OC (stereo not drawn)", "RIOK1", "%", 73),
    ("CC(=O)Nc1nc2cnc(Nc3cc(NC(=O)c4cccc(C5(C#N)CC5)c4Cl)ccc3C)nc2s1", "RIOK1", "%", 15),
    ("COC(=O)Nc1nc2ccc(Oc3ccc(NC(=O)Nc4cc(C(F)(F)F)ccc4F)cc3)cc2n1C.Cl", "RIOK1", "%", 0),
    ("COc1cc(Nc2nccc(N3CCC(NC(=O)c4cc5ccccc5s4)C3)n2)cc(OC)c1OC (stereo not drawn)", "RIOK1", "%", 76),
    ("Cc1cccc(Nc2nc(N[C@H]3CCNC3)ncc2C(N)=O)c1.Cl", "RIOK1", "%", 99.8),
]

Output measured %Inh for this item: c1ccc(-c2n[nH]cc2Nc2ccnc3ccccc23)nc1 99.2

Output measured %Inh for this item: COc1ccc(Nc2nccc(NCCNC(=O)c3cc4ccccc4s3)n2)cc1 19

Output measured %Inh for this item: c1ccc(-c2cnc3nccnn23)cc1 0

###

tested on: PKAC-alpha; construct: gene PRKACA; settings: concentration: 1 μM, replicates: in singlicate; n = 1
Overview of reported %Inh across a group of compounds:

# CHEMICAL_STRING, %Inh
measured = [
    ("Nc1n[nH]c2cnc(-c3ccccc3)cc12", "0%"),
    ("Clc1ccc(-c2nn3ncccc3c2-c2ccnc(Nc3ccc4c(c3)OCCO4)n2)cc1", "24%"),
    ("Nc1ncc(-c2ccc3nccc(-c4ccncc4)c3c2)cc1S(=O)(=O)N1CCOCC1", "0%"),
    ("CSc1cccc2c(-c3ccncn3)c(-c3ccc(F)cc3)nn12", "14%"),
]

Output measured %Inh for this item: CCS(=O)(=O)c1ccc(OC)c(Nc2nccc(-c3c(-c4cccc(NC(=O)c5c(F)cccc5F)c4)nn4ncccc34)n2)c1 0%

###

Overview of reported %Inh across a group of compounds:
tested on: TAOK2; details: concentration: 1 μM, replicates: in singlicate; n = 1
Please give the number followed by its unit.

Use these answered entries as a reference point.
# COMPOUND, EXPERIMENTAL_SYSTEM, %Inh
measured = [
    ("COc1cc(Nc2nccc(-c3c(-c4cccc(NC(=O)c5c(F)cccc5F)c4)nn4ncccc34)n2)cc(OC)c1OC", "TAOK2", "39%"),
    ("c1ccc(-c2cnc3nccnn23)cc1", "TAOK2", "0%"),
    ("CN(c1ccc(NC(=O)Nc2cc(C(F)(F)F)ccc2F)cc1)c1ccnc(Nc2ccc(S(N)(=O)=O)cc2)n1", "TAOK2", "86%"),
    ("O=c1[nH]cc(-c2ccc(N3CCOCC3)cc2)c2sc(-c3cn[nH]c3)cc12", "TAOK2", "5%"),
    ("CC(=O)Nc1nc2cnc(Nc3cc(NC(=O)c4cccc(C5(C#N)CC5)c4Cl)ccc3C)nc2s1", "TAOK2", "0%"),
]

Output measured %Inh for this item: Nc1ncc(-c2ccc3nccc(-c4ccncc4)c3c2)cc1S(=O)(=O)N1CCOCC1 0%

Output measured %Inh for this item: COCCOCCOc1cc2ncc3c4ccc(C#N)cc4[nH]c3c2cc1OC 12%

Output measured %Inh for this item: Oc1cc(Nc2ccnc3cc(I)ccc23)ccc1F 0%

Output measured %Inh for this item: C[C@@H](Oc1cc(-n2cnc3cc(-c4ccnc(NCCS(C)(=O)=O)c4)ccc32)sc1C(N)=O)c1ccccc1Cl 0%

Output measured %Inh for this item: CN1CCN(CCCNc2nccc(-c3c(-c4ccc(F)cc4)nn4cc(C(F)(F)F)ccc34)n2)CC1 0%

Output measured %Inh for this item: COc1cc(Nc2nccc(-c3c(-c4cccc(NC(=O)c5c(F)cccc5F)c4)nn4ccccc34)n2)cc(OC)c1OC 0%

Output measured %Inh for this item: COc1ccc(Nc2nccc(NCCNC(=O)c3cc4ccccc4s3)n2)cc1 0%

Output measured %Inh for this item: Cl.NC(=O)c1cccc(Nc2nccc(Nc3ccc(Oc4c(Cl)cccc4Cl)c(Cl)c3)n2)c1 0%

Output measured %Inh for this item: CN1CCN(Cc2cccc(-c3ccc4c(Nc5ccc(Oc6ccccc6)cc5)ccnc4c3)c2)CC1 0%

Output measured %Inh for this item: Cc1ccc(S(=O)(=O)Nc2ccc(Nc3nccc(Nc4cccc5[nH]ncc45)n3)cc2)cc1 0%

Output measured %Inh for this item: COC(=O)Nc1nc2cc(Oc3ccc(NC(=O)Nc4cc(C(F)(F)F)ccc4F)cn3)ccc2[nH]1.Cl.Cl 0%

Output measured %Inh for this item: O=C(Nc1cccc(-c2nn3ccccc3c2-c2ccnc(Nc3cccc(C(F)(F)F)c3)n2)c1)c1c(F)cccc1F 3%

Output measured %Inh for this item: Cc1ccc(C)c(NC(=O)NC2CCN(c3ccnc(Nc4ccc(F)cc4)n3)C2)c1 (stereo not drawn) 0%

Output measured %Inh for this item: Cl.c1ccc(-c2ccc3c(Nc4ccc5[nH]ccc5c4)ccnc3c2)nc1 0%

Output measured %Inh for this item: CSc1cccc2c(-c3ccncn3)c(-c3ccc(F)cc3)nn12 0%

Output measured %Inh for this item: c1ccc(Oc2ccc(Nc3ccnc4cc(-c5ccc(CNCCN6CCOCC6)o5)ccc34)cc2)nc1 0%

Output measured %Inh for this item: Cc1ccc(C(=O)Nc2ccc(Nc3ccnc4cc(-c5nccs5)ccc34)cc2O)cc1.Cl 0%

The reported measurements were obtained from paper PMC5540273.
